experimental-target: T1, CeSMARCA4 BD with the GST tag cleaved off (ITC) (C. elegans, UniProt G5EF53 1179-1289)
T1 construct: SWSN-4 (CeSMARCA4), C. elegans, bromodomain; the Asp1179-Asn1289 construct is the one named for ITC; A protease site and cleavage are described only for the crystallisation construct (K1176-E1296, F1287S); also called CeSMARCA4 bromodomain, GST tag removed; source: E. coli BL21 (DE3), purified, GST tag cleaved off; not shown: GST, N-terminal, cleaved
T1 sequence (looked up): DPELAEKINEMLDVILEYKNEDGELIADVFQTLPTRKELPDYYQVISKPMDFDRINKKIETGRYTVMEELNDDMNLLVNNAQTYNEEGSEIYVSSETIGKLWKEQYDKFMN
test-name: ITC; MicroCal Auto-iTC200, 293 or 298 K, 10 mM HEPES, 100 mM NaCl, 2.5% glycerol, pH 7.3; protein 50–100 μM in the cell, peptide 500–1000 μM in the syringe; single-site binding model
stated-conditions: both partners purified
Ends that are not written are not given here.
assay-readout: Kd (µM)
Report only the number, with the unit µM understood.

Lookup: What value of measured Kd is listed for ARKSTGGK(Ac)APRKQL (peptide, UniProt P68431 8-21, looked up, histone H3 N-terminal tail, residues 7-20; also called H3K14ac peptide) [histone H3_(7–20)K14ac peptide] ?
Found: 23.4

Source: paper PMC8506967
